B1: VH:VL chains; a variant is named by its letters at X, in order (parent)
chain 1: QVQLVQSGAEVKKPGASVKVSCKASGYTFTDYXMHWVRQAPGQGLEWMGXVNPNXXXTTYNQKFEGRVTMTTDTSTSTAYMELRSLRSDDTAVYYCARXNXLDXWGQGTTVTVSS
chain 2: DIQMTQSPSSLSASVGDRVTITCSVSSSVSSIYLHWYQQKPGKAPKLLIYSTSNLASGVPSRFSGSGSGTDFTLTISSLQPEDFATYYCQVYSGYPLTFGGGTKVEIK

Variants of: B1
ASSAY: yeast display scFab, FACS + sequencing
TEST_SETTINGS: with MET
The list shows a part of the results. How many sequences the whole screen found active is unknown.
READOUT_LABEL: antigen binding call

Record excerpt, results attached:
YRRRGSSS
binds
SKTKSDGS
no binding
YAARGAAV
no binding
FRRGGAGD
binds
FTGRGAAA
binds
ATKTAFVS chain 1 M34I
no binding

Ask: Entry under review: STAESDGA . Reported antigen binding call?
Result: no binding

Ask: Request: FRARGAAV
Result: binds

Ask: Same read-out for FTEEGAGD ?
Result: no binding

Ask: Now try SKERGDLV .
Result: no binding

Ask: FTETGAGD ?
Result: no binding
